Measured values drawn from patent US20250026813A1 for this set.

- tested-system: SARS-CoV-2 spike protein bearing furin mutation and truncation in retention sequence (on pseudoviral envelope) (SARS-CoV-2, UniProt P0DTC2 14-1273)
- protocol-details: cell-based or functional assay

binder	PV neutralisation IC50
YANG-1401 (antibody, V domains shown) VH: QVHLQESGPGLVKPSGTLSLTCAVSGGSFSQINWWSWVRQSPGKGLEWIGEIYHSGSTNYNPSLKSRVTMSVDKSKNQFSLALNSVTAADTAVYYCARGYYGDNWFDSWGQGTLVTVSS VL: DIQMTQSPSSLSASIGDRVTITCRASQGISNWLVWYQQKPEKAPKSLIYAASSLQSGVPSRFSGSGSGTDFTLTISSLHPEDFATYYCQQYSDYPLTFGGGTKVEIK	530 pM
YANG-1302 (antibody, V domains shown) VH: QVQLVESGGGAVQPGRSLRLSCRASGFTFSSFGMNWVRQVPGKGLVWVAGIWYDGRNKYYADSVKGRFTISRENSKNMLYLQMNSLRAEDTAVYYCARDQDSGFDGNWFGPWGQGTMVTVSS VL: SYELTQPPSMSVSPGQTASITCSGDNLGDKYVCWYQQRPGQSPVMVIFQDSTRPSGIPERFSGSNSGNTATLTISGTQAMDEADYYCQAWDSNTAVFGGGTKLTVL	230 pM
YANG-2203 (antibody, V domains shown) VH: QVQLVQSGAEVKQPGASVKVSCRASGYALTSFYVHWVRQAPGQGLEWMGIIKPSGGDTIYAQNLQGRVTMTRDTSTNTFYVELSSLRSEDTALYYCAISGNTRAFEIWGQGTMVTVSL VL: QSVLTQPPSVSAAPGQKVTISCSGSSSNIGNNFVSWYQQLPGMVPKLLIYANNKRPSGIPDRFSGSRSGTSATLGITGLQTGDEADYYCGTWDSSRSAVLFGGGTKMTVL	5450 pM
YANG-2109 (antibody, V domains shown) VH: QVQLVQSGAEVKKPGSSVKVSCKASGGTFSGYTISWIRQAPGQGLEWMGGIIPSFGSLNYGQKFQDRVSITTDELKSTVYMELSSLNSEDTAIYYCTRESITSGYYYGMAVWGQGTTVTVSS VL: DIQMTQSPSSLSASVGDRVTITCRASQGIRDDLGWFQQKPGKAPKRLISAASSLQSGVPSRFSGSGSGTEFTLTISSLQPEDFATYYCLQHNSYPLTFGGGTKVEIR	500 pM
